Assay: Evaluated for ionization constant (pKa4) by titrations performed in the presence of MeOH at a dielectric constant of 56
Format: physicochemical
Conditions: MeOH cosolvent, dielectric constant 56; read-out: pKa4
measured.endpoint: pKa

[[record]]
compound = "O=C(O)CN(CCN(CC(=O)O)Cc1ccccc1O)Cc1ccccc1O"
test_value = 4.57


----------
Experiment: Evaluated for ionization constant (pKa4) by titrations performed in the presence of MeOH at a dielectric constant of 49
Type: physicochemical
Conditions: MeOH cosolvent; read-out: pKa4
measured.endpoint: pKa

[[record]]
compound = "O=C(O)CN(CCN(CC(=O)O)Cc1ccccc1O)Cc1ccccc1O"
test_value = 4.71


----------
Documented logP across a set of molecules
Test: Partition coefficient (logP) (cyclohexane)
Format: physicochemical
measured.endpoint: logP

[[record]]
compound = "COC(=O)CN(CCN(CC(=O)[O-])Cc1ccccc1O)Cc1ccccc1O.[Na+]"
test_value = "< -2"

[[record]]
compound = "O=C(O)CN(CCN(CC(=O)O)Cc1ccccc1O)Cc1ccccc1O"
test_value = "< -2"

[[record]]
compound = "CCOC(=O)CN(CCN(CC(=O)[O-])Cc1ccccc1O)Cc1ccccc1O.[Na+]"
test_value = -1.3

[[record]]
compound = "CCOC(=O)CN(CCN(CC(=O)OCC)Cc1ccccc1O)Cc1ccccc1O"
test_value = 3.22

[[record]]
compound = "COC(=O)CN(CCN(CC(=O)OC)Cc1ccccc1O)Cc1ccccc1O"
test_value = 2.11


----------
Experiment: Evaluated for ionization constant (pKa4) by titrations performed in absence of cosolvent and at a dielectric constant of 78
Format: physicochemical
Conditions: no cosolvent; read-out: pKa4
measured.endpoint: pKa

[[record]]
compound = "CCOC(=O)CN(CCN(CC(=O)[O-])Cc1ccccc1O)Cc1ccccc1O.[Na+]"
test_value = 2.91


----------
Test: Evaluated for ionization constant (pKa2) by titrations performed in presence of a MeOH and at a dielectric constant of 49
Assay type: physicochemical
Conditions: MeOH cosolvent, dielectric constant 49; read-out: pKa2
measured.endpoint: pKa

[[record]]
compound = "COC(=O)CN(CCN(CC(=O)OC)Cc1ccccc1O)Cc1ccccc1O"
test_value = 11.9


----------
Experiment: Evaluated for ionization constant (pKa1) by titrations performed in presence of a MeOH and at a dielectric constant of 62
Format: physicochemical
Details: MeOH cosolvent, dielectric constant 62; read-out: pKa1
measured.endpoint: pKa

[[record]]
compound = "COC(=O)CN(CCN(CC(=O)OC)Cc1ccccc1O)Cc1ccccc1O"
test_value = 12.6


----------
Assay: Evaluated for ionization constant (pKa5) by titrations performed in presence of MeOH solvent at a dielectric constant of 49
Format: physicochemical
Conditions: MeOH cosolvent; read-out: pKa5
measured.endpoint: pKa

[[record]]
compound = "COC(=O)CN(CCN(CC(=O)[O-])Cc1ccccc1O)Cc1ccccc1O.[Na+]"
test_value = 0.9


----------
Test: Evaluated for ionization constant (pKa4) by titrations performed in the absence of a cosolvent and at a dielectric constant of 78
Assay type: physicochemical
Conditions: no cosolvent; read-out: pKa4
measured.endpoint: pKa

[[record]]
compound = "O=C(O)CN(CCN(CC(=O)O)Cc1ccccc1O)Cc1ccccc1O"
measured_endpoint = "pKa"
test_value = 4.61


----------
pKa reference
Assay: Evaluated for ionization constant (pKa3) by titrations performed using the method of Yasuda and Shedlovsky
Format: physicochemical
Conditions: read-out: pKa3
measured.endpoint: pKa

[[record]]
compound = "CCOC(=O)CN(CCN(CC(=O)OCC)Cc1ccccc1O)Cc1ccccc1O"
test_value = 5.7

[[record]]
compound = "O=C(O)CN(CCN(CC(=O)O)Cc1ccccc1O)Cc1ccccc1O"
test_value = 8.36

[[record]]
compound = "COC(=O)CN(CCN(CC(=O)OC)Cc1ccccc1O)Cc1ccccc1O"
test_value = 5.7

[[record]]
compound = "COC(=O)CN(CCN(CC(=O)[O-])Cc1ccccc1O)Cc1ccccc1O.[Na+]"
test_value = 7.68


----------
Assay: Partition coefficient (logP)
Type: physicochemical
Settings: octanol/water
Response field label: string, one of yes (logP strictly below 1) or no.

[[record]]
compound = "O=C(O)CN(CCN(CC(=O)O)Cc1ccccc1O)Cc1ccccc1O"
classification = "yes"

[[record]]
compound = "COC(=O)CN(CCN(CC(=O)OC)Cc1ccccc1O)Cc1ccccc1O"
classification = "no"

[[record]]
compound = "CCOC(=O)CN(CCN(CC(=O)OCC)Cc1ccccc1O)Cc1ccccc1O"
classification = "no"

[[record]]
compound = "CCOC(=O)CN(CCN(CC(=O)[O-])Cc1ccccc1O)Cc1ccccc1O.[Na+]"
classification = "no"

[[record]]
compound = "COC(=O)CN(CCN(CC(=O)[O-])Cc1ccccc1O)Cc1ccccc1O.[Na+]"
classification = "yes"

